Species: Rattus norvegicus
Test description: Open TG-GATES - Regimen: Daily Repeat
Format: toxicity, organism-based, Sprague-Dawley
Set-up: regimen Daily Repeat, gender Male, age 6 weeks
Condition details: in vivo, po, 0 mg/kg, […], tissue Blood, route gavage, dose level Control, time 7 day
# maps each entry to its Neu
Give the value in % but do not write % after it.

Example cases with answers are listed next.
CC[C@H]1[C@@H]2C[C@H]3[C@@H]4N(C)c5ccccc5[C@]45C[C@@H]([C@@H]2[C@H]5O)N3[C@@H]1O; 12.2
CCCCc1oc2ccccc2c1C(=O)c1cc(I)c(OCCN(CC)CC)c(I)c1; 17
CCC1(c2ccccc2)C(=O)NC(=O)NC1=O; 10.4
CN(C)C(=N)N=C(N)N; 17.6
CCc1oc2ccccc2c1C(=O)c1cc(Br)c(O)c(Br)c1; 12.4

Sure, the documented Neu for ClC(Cl)(Cl)Cl [CARBON TETRACHLORIDE] is 11.2

Sure, the documented Neu for "O=NN(CCCl)C(=O)NC1CCCCC1" is 14.2

Sure, the documented Neu for CN(C)CCC=C1c2ccccc2COc2ccccc21 [DOXEPIN] is 19

Sure, the documented Neu for CC1=C(CC(=O)O)c2cc(F)ccc2/C1=C\c1ccc([S+](C)[O-])cc1 (stereo not given) is 14.4

Sure, the documented Neu for OCCOCCN1CCN(C(c2ccccc2)c2ccc(Cl)cc2)CC1 (stereo not given) [HYDROXYZINE] is 16.4

----------
Species on record: Rattus norvegicus
Test description: Open TG-GATES - Regimen: Single
Assay type: toxicity, organism-based, Sprague-Dawley
Parameters: regimen Single, gender Male, age 6 weeks
Condition details: in vivo, po, 0 mg/kg, 6 h, tissue Plasma, route gavage, dose level Control
# maps each entry to its ALT
Give the value in IU/L but do not write IU/L after it.

CCC1(c2ccccc2)C(=O)NC(=O)NC1=O [PHENOBARBITAL]; 34.4
CC[C@H]1[C@@H]2C[C@H]3[C@@H]4N(C)c5ccccc5[C@]45C[C@@H]([C@@H]2[C@H]5O)N3[C@@H]1O [AJMALINE]; 34.6
ClC(Cl)(Cl)Cl [CARBON TETRACHLORIDE]; 31.4
CC1=C(CC(=O)O)c2cc(F)ccc2/C1=C\c1ccc([S+](C)[O-])cc1 (stereo not given); 38.2
O=NN(CCCl)C(=O)NC1CCCCC1 [LOMUSTINE]; 28.2

Sure, the documented ALT for CN(C)CCC=C1c2ccccc2COc2ccccc21 [DOXEPIN] is 37.4

Sure, the documented ALT for OCCOCCN1CCN(C(c2ccccc2)c2ccc(Cl)cc2)CC1 (stereo not given) [HYDROXYZINE] is 36.4

Sure, the documented ALT for CC(C)N(CCC(C(N)=O)(c1ccccc1)c1ccccn1)C(C)C (stereo not given) [DISOPYRAMIDE] is 42.4

Sure, the documented ALT for CCc1oc2ccccc2c1C(=O)c1cc(Br)c(O)c(Br)c1 [BENZBROMARONE] is 28.2

Sure, the documented ALT for CN(C)C(=N)N=C(N)N [METFORMIN] is 44.8

----------
Organism: Rattus norvegicus
Test description: Open TG-GATES - Regimen: Single
Type: toxicity, organism-based, Sprague-Dawley
Set-up: regimen Single, gender Male, age 6 weeks
Condition details: in vivo, po, 0 mg/kg, 6 h, tissue Blood, route gavage, dose level Control
Measured quantity: Ht
Write the numeric value and follow it with the unit.

CCc1oc2ccccc2c1C(=O)c1cc(Br)c(O)c(Br)c1; 41.9%
CN(C)C(=N)N=C(N)N; 38.9%
CC1=C(CC(=O)O)c2cc(F)ccc2/C1=C\c1ccc([S+](C)[O-])cc1 (stereo not given); 42.2%
ClC(Cl)(Cl)Cl [CARBON TETRACHLORIDE]; 37.6%

Now look at this one.
Sure, the documented Ht for "CCC1(c2ccccc2)C(=O)NC(=O)NC1=O" is 39.1%

----------
Organism: Rattus norvegicus
Test description: Open TG-GATES - Regimen: Daily Repeat
Type: toxicity, organism-based, Sprague-Dawley
Parameters: regimen Daily Repeat, gender Male, age 6 weeks
Condition details: in vivo, po, 0 mg/kg, 72 h, tissue Plasma, route gavage, dose level Control, time 3 day
Measured quantity: CRE (mg/dL)
Give the value in mg/dL but do not write mg/dL after it.

Example cases with answers are listed next.
CN(C)C(=N)N=C(N)N; 0.2
CC1=C(CC(=O)O)c2cc(F)ccc2/C1=C\c1ccc([S+](C)[O-])cc1 (stereo unspecified); 0.2
CCc1oc2ccccc2c1C(=O)c1cc(Br)c(O)c(Br)c1; 0.5
ClC(Cl)(Cl)Cl [CARBON TETRACHLORIDE]; 0.4
CN(C)CCC=C1c2ccccc2COc2ccccc21 [DOXEPIN]; 0.2
OCCOCCN1CCN(C(c2ccccc2)c2ccc(Cl)cc2)CC1 (stereo unspecified) [HYDROXYZINE]; 0.2

Sure, the documented CRE for "CCC1(c2ccccc2)C(=O)NC(=O)NC1=O" is 0.5

Sure, the documented CRE for "CCCCc1oc2ccccc2c1C(=O)c1cc(I)c(OCCN(CC)CC)c(I)c1" is 0.4

Sure, the documented CRE for CC(C)N(CCC(C(N)=O)(c1ccccc1)c1ccccn1)C(C)C (stereo unspecified) [DISOPYRAMIDE] is 0.2

Sure, the documented CRE for "CC[C@H]1[C@@H]2C[C@H]3[C@@H]4N(C)c5ccccc5[C@]45C[C@@H]([C@@H]2[C@H]5O)N3[C@@H]1O" is 0.5

Sure, the documented CRE for "O=NN(CCCl)C(=O)NC1CCCCC1" is 0.5

----------
# maps each entry to its Fbg
Species: Rattus norvegicus
Test description: Open TG-GATES - Regimen: Daily Repeat
Format: toxicity, organism-based, Sprague-Dawley
Design: regimen Daily Repeat, gender Male, age 6 weeks
Condition details: in vivo, po, 0 mg/kg, […], tissue Blood, route gavage, dose level Control, time 14 day
Give the value in mg/dL but do not write mg/dL after it.

Example cases with answers are listed next.
CN(C)C(=N)N=C(N)N [METFORMIN]; 252.2
CN(C)CCC=C1c2ccccc2COc2ccccc21 [DOXEPIN]; 280.2
CC[C@H]1[C@@H]2C[C@H]3[C@@H]4N(C)c5ccccc5[C@]45C[C@@H]([C@@H]2[C@H]5O)N3[C@@H]1O [AJMALINE]; 211.6
OCCOCCN1CCN(C(c2ccccc2)c2ccc(Cl)cc2)CC1 (stereo unspecified) [HYDROXYZINE]; 292
O=NN(CCCl)C(=O)NC1CCCCC1 [LOMUSTINE]; 224.4

Sure, the documented Fbg for CC(C)N(CCC(C(N)=O)(c1ccccc1)c1ccccn1)C(C)C (stereo unspecified) [DISOPYRAMIDE] is 319.4

Sure, the documented Fbg for CCC1(c2ccccc2)C(=O)NC(=O)NC1=O [PHENOBARBITAL] is 241.4

Sure, the documented Fbg for CC1=C(CC(=O)O)c2cc(F)ccc2/C1=C\c1ccc([S+](C)[O-])cc1 (stereo unspecified) is 299.8

Sure, the documented Fbg for CCCCc1oc2ccccc2c1C(=O)c1cc(I)c(OCCN(CC)CC)c(I)c1 [AMIODARONE] is 231.8

Sure, the documented Fbg for CCc1oc2ccccc2c1C(=O)c1cc(Br)c(O)c(Br)c1 [BENZBROMARONE] is 223.8

Sure, the documented Fbg for ClC(Cl)(Cl)Cl [CARBON TETRACHLORIDE] is 239

----------
Species: Rattus norvegicus
Test description: Open TG-GATES - Regimen: Daily Repeat
Assay type: toxicity, organism-based, Sprague-Dawley
Design: regimen Daily Repeat, gender Male, age 6 weeks
Condition details: in vivo, po, 0 mg/kg, […], tissue Plasma, route gavage, dose level Control, time 14 day
Measured quantity: PL

Example cases with answers are listed next.
CC[C@H]1[C@@H]2C[C@H]3[C@@H]4N(C)c5ccccc5[C@]45C[C@@H]([C@@H]2[C@H]5O)N3[C@@H]1O [AJMALINE]; 148.4 mg/dL
ClC(Cl)(Cl)Cl [CARBON TETRACHLORIDE]; 135.6 mg/dL
O=NN(CCCl)C(=O)NC1CCCCC1 [LOMUSTINE]; 167.6 mg/dL
CC(C)N(CCC(C(N)=O)(c1ccccc1)c1ccccn1)C(C)C (stereo unspecified) [DISOPYRAMIDE]; 146.4 mg/dL
CC1=C(CC(=O)O)c2cc(F)ccc2/C1=C\c1ccc([S+](C)[O-])cc1 (stereo unspecified); 163.4 mg/dL

Sure, the documented PL for CCc1oc2ccccc2c1C(=O)c1cc(Br)c(O)c(Br)c1 [BENZBROMARONE] is 158.6 mg/dL

Sure, the documented PL for CN(C)C(=N)N=C(N)N [METFORMIN] is 150.6 mg/dL

Sure, the documented PL for CCC1(c2ccccc2)C(=O)NC(=O)NC1=O [PHENOBARBITAL] is 159.4 mg/dL

Sure, the documented PL for OCCOCCN1CCN(C(c2ccccc2)c2ccc(Cl)cc2)CC1 (stereo unspecified) [HYDROXYZINE] is 151.2 mg/dL

Sure, the documented PL for CN(C)CCC=C1c2ccccc2COc2ccccc21 [DOXEPIN] is 157 mg/dL

Sure, the documented PL for CCCCc1oc2ccccc2c1C(=O)c1cc(I)c(OCCN(CC)CC)c(I)c1 [AMIODARONE] is 160.8 mg/dL
